- Tested on: transactivating tegument protein VP16 (Human herpesvirus 1), Gal4-VP16 luciferase reporter
- Test details: VP16 transactivation inhibitors, counter-screen for SRC3 inhibitor project, cell-based, luminescence, high throughput (AID 588794)
- Assay context: mammalian cells, VP16-driven luciferase reporter luminescence; at 3.6 µM; stronger effect = higher value
Recorded inhibition by entry
Value expressed in %; do not type the unit.

O=[N+]([O-])c1ccc(N(CCO)CCO)c2c1no[n+]2[O-]	27.8
CC(=O)OC1C2(CC3N4C(=O)C5(CO)SSC4(CC31O)C(=O)N5C)OC(C)C(C)(C)C2=O (centres undefined)	94.1
CC1CC(C)(O)CC(C(O)CC2CC(=O)NC(=O)C2)C1=O (centres undefined)	95.7
CNC(=O)c1cccn(Cc2cc(C(F)(F)F)cc(C(F)(F)F)c2)c1=O	11
CCOc1ccc(-c2cc(C)[n+](CCN(CC)CC)c(-c3ccc(OCC)cc3)c2)cc1	80.8
COC(=O)c1ccc(NC(=O)CSc2nc3ccc(N4C(=O)C5C6C=CC(C6)C5C4=O)cc3s2)cc1 (centres undefined)	-0.23
O=C1NC2C(=CC(O)C(O)C2O)c2cc3c(cc21)OCO3 (centres undefined)	96.6
COC(=O)C1CN(C#N)N(c2ccc(Cl)cc2)C12c1ccccc1-c1ccccc12 (centres undefined)	33.5

Input: Please report the recorded inhibition for O=c1[nH]c2ccccc2n1C1CCN(C(c2ccccc2)c2nnnn2-c2ccc3c(c2)OCCO3)CC1 (centres undefined) .
Output: 14.1

Input: Requested read-out: inhibition. Entry: C[C@@H]1O[C@@H](O[C@H]2C[C@@H](O)[C@]3(CO)[C@@H]4C(CC[C@]3(O)C2)[C@@]2(O)CC[C@H](C3COC(=O)C3)[C@@]2(C)C[C@H]4O)[C@H](O)[C@H](O)[C@H]1O (some centres undefined)
Output: 47.1

Input: Which inhibition reading was recorded for the molecule Cc1ccc(-c2cc(-c3ccc(C)cc3)[n+](C)o2)cc1 ?
Output: 47.2

Input: So what's the measured inhibition for this one? CC(=O)OC1(C)CC(C)C(=O)C(C(O)CC2CC(=O)NC(=O)C2)C1 (centres undefined)
Output: 96.7
